B1: Zinc finger homeobox protein 3, residues 2147 to 2202; numbered along this chain, Q15911 (parent)
chain: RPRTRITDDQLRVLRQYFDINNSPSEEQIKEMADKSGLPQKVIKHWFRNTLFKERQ

- Variants of: B1
- PROTOCOL_NOTES: abundance fitness (aPCA) (normalised: wild type 0, dead -1); higher = more abundant; growth selection in yeast, the domain comes from the species named
- ASSAY_SETUP: Homo sapiens
Each entry gets f if its abundance fitness stays under -0.2, and t if its abundance fitness is -0.2 or above.

MUTANT_CODE	ASSIGNED_CATEGORY
F18H	f
S23M	t
R1Y	t
R12V	t
L11E	t
F52W	t
E27K	t
P24M	f

Form field: abundance fitness at least -0.2? Entry: L38F
f

Does R5I have a reported abundance fitness of at least -0.2?
t

Is reported abundance fitness greater than or equal to -0.2 here: T50D
f
